- target: pooled human IgG (human IgG1, 2, 3 and 4)
recordedEndpoint: Enzyme Activity Endpoint Assay: Fc (ng/µL)

# protein, recordedEndpoint, obsValue
rows = [
    ("PRT-581 (protein) MANQEIRYSKATPKTITSVWTKGVTPPENFIYNEDVLHAPYLANQGWYDITKTFNGKDDLLCGAATAGNMLHWWFDQNKEQIERYLKEHPEKQKINFNGEQMFDVKEAIDTKDSQTNSKLFEYFKDKAFPYLSTKHLGVFPDHVIDMFINGYRLSLTNHGPTPVKEQTKDPRGGIFDAVFTRGDQSKLLTSRHDFKEKTLNEISDLIKQELTEGKALGLSHTYANVRINHVINLWGADFDAEGNLEAIYVTDSDSNASIGMKKYYVGVNSAGKVAISAKEIEGDNIGAQVLGLFTLSTGKDIWEQTNLEHHHHHH", "Enzyme Activity Endpoint Assay: Fc", 365),
    ("PRT-422 (protein) MTITSVWTKGVTPPTPEDFRYNNEDVLHAPYVANQGWYDITKTFDGKDNLLCGAATAGNMLHWWFDQNKEEIERYLKKHPEKQKIIFNNQELFDVKAAIDTKDSQTNSKLFNYFRDKAFPNLSARQLGVMPDLVLDMFINGYYLNLGKTQSTDVNRPYQDKDKRGGIFDAVFTRGDQTTLLTARHDLKNKGLNEISDLIKQELTEGKALALSHTYANVRINHVINLWGADFDAEGNLIAIYVTDSDANPSIGMKKYFVGVNANGKVAISAKKIEGDNIGAQVLGLFTLSTGQDIWQKLS", "Enzyme Activity Endpoint Assay: Fc", 348),
    ("PRT-583 (protein) MANQEIRYSKAKPKVITSVWTKGVTPPTQFTKNEDVFHAPYLANQGWYDITKTFNGKDDLLCGAATAGNMLHWWFDQNKEQIERYLKKHPEKQKINFNGEQMFDVKEAIDTKDSQTNSKLFNYFKEKAFPYLSTKHLGVFPDHVIDMFINGYRLSLTNHGPTPVKEQNKDPRGGIFDDVFTRGDQSKLLTSRHDFKEKTLKEISDLIKQELKEGKALGLSHTYANVRINHVINLWGADFDAEGNLIAIYVTDSDSNASIGMKKYYVGVNSAGKVAISAKEIEDDNIGAQVLGLFTLSTGKDIWEKTNLEHHHHHH", "Enzyme Activity Endpoint Assay: Fc", 396),
]
